assayTarget: Muscarinic acetylcholine receptor M1 (Homo sapiens)
procedureDetails: Positive allosteric modulator activity at human muscarinic M1 receptor expressed in CHO cells assessed as effect on acetylcholine-induced intracellular calcium mobilization by FLIPR assay
Type: functional, cell-based
assayEndpoint: IP (µM)

Consider the reported IP for these compounds:
O=C(O)c1cn(Cc2ccc(-c3ccccc3)cc2)c2cnccc2c1=O ... 0.43
Cc1ccnn1-c1ccc(Cn2cc(C(=O)O)c(=O)c3cccnc32)cc1 ... 17.9
O=C(O)c1cn(Cc2ccc(-n3cccn3)cc2)c2cnccc2c1=O ... 1.14
O=C(O)c1cn(Cc2ccc(-c3ccncc3)cc2)c2ccsc2c1=O ... 0.6

I = O=C(O)c1cn(Cc2ccc(-c3ccccc3)cc2)c2cccnc2c1=O
II = O=C(O)c1cn(Cc2ccc(-c3ccnc(Cl)c3)cn2)c2ccsc2c1=O
III = Cc1cn(-c2ccc(Cn3cc(C(=O)O)c(=O)c4cccnc43)cc2)cn1
IV = O=C(O)c1cn(Cc2ccc(-c3ccccc3)cc2)c2nnccc2c1=O
Please put the entries in order of rising IP. Lab note: final answer is the ordered label list. III, II, I, IV
(III: 0.34 µM, II: 0.81 µM, I: 1.38 µM, IV: 5.95 µM)
